- Method Description: Anticancer activity against human DWD cells by SRB method
- Format: functional
Listed compounds paired with reported GI50

>  <Line Notation>
COc1cc(/C=C/C(=O)c2ccccc2O)ccc1OCCCCn1cc(COc2cc3c(cc2OC)C(=O)N2CCC[C@H]2C=N3)nn1

>  <GI50>
< 130 nM

$$$$
>  <Line Notation>
COc1cc(/C=C/C(=O)c2ccc(O)cc2)ccc1OCCCCn1cc(COc2cc3c(cc2OC)C(=O)N2CCC[C@H]2C=N3)nn1

>  <GI50>
< 160 nM

$$$$
>  <Line Notation>
COc1cc(/C=C/C(=O)c2cc(Cl)ccc2O)ccc1OCCCCn1cc(COc2cc3c(cc2OC)C(=O)N2CCC[C@H]2C=N3)nn1

>  <GI50>
< 170 nM

$$$$
